Each entry below carries its recorded Increase in fluorescence of ADR (VAR-MEAN = MN2 - MN1).
Test system: line DC-3F/AD
Test: Flow cytometry, increase in fluorescence of ADR on the line DC-3F/AD
Format: cell-based, Chinese Hamster
Run Parameters: compound 2 μM, ADR 50 μM, 5 h
Property Measured: Increase in fluorescence of ADR (VAR-MEAN = MN2 - MN1)

>>> df
                                    compound  reported_value
 0  CN1CCN(CCCN2c3ccccc3Sc3ccc(C(F)(F)F)cc32)CC1 [TRIFLUOPERAZINE]            0.00
 1  C=CCNc1nc(NCC=C)nc(N2CCC(NCC(c3cc(OC)cc(OC)c3)c3ccccc3C)CC2)n1 (stereo not drawn) [Example 10]            14.8
 2  C=CCNc1nc(NCC=C)nc(N2CCC(NCC(c3ccccc3)c3ccccc3)CC2)n1 [Example 5]            15.5
 3  C=CCNc1nc(NCC=C)nc(N2CCC(N(C)CC(c3ccccc3)c3ccccc3)CC2)n1 [Example 4]            12.3
 4  C=CCNc1cc(N2CCC(NCCC(c3ccccc3)c3ccccc3)CC2)nc(NCC=C)n1 [Example 9]             7.2
 5  CCCCc1oc2ccccc2c1C(=O)c1cc(I)c(OCCN(CC)CC)c(I)c1 [AMIODARONE, reference compound]            8.80
 6  CCN(CC)CCCC(C)Nc1c2ccc(Cl)cc2nc2ccc(OC)cc12 (stereo not drawn) [QUINACRINE]            2.00
 7  C=CCNc1nc(NCCC)nc(N2CCC(NCC(c3ccccc3)c3ccccc3)CC2)n1 [Example 7]           14.47
 8  C=CCNc1nc(NCC=C)nc(N2CCC(SCCC(c3ccccc3)c3ccccc3)CC2)n1 [Example 2]             0.2
 9  COc1ccc(CCN(C)CCCC(C#N)(c2ccc(OC)c(OC)c2)C(C)C)cc1OC (stereo not drawn) [reference compound]            2.00
10  C=CCNc1nc(NCC=C)nc(NC2CCN(CC(c3ccccc3)c3ccccc3)CC2)n1 [Example 3]             8.0
11  C=CCNc1nc(NCCC)nc(N2CCC(NCCC(c3ccccc3)c3ccccc3)CC2)n1 [Example 8]             4.5
12  O=c1[nH]c2ccccc2n1C1CCN(CCCC(c2ccc(F)cc2)c2ccc(F)cc2)CC1 [PIMOZIDE]            5.85
13  C=CCNc1nc(NCC=C)nc(N2CCC(NCC(c3ccc(F)cc3)c3ccc(F)cc3)CC2)n1 [Example 1]           18.27
14  C=CCNc1nc(NCCC)nc(NC2CCN(CC(c3ccccc3)c3ccccc3)CC2)n1 [Example 11]            12.6
15  C=CCNc1nc(NCC=C)nc(N2CCC(NCCC(c3ccc(OC)c(OC)c3)c3ccc(OC)c(OC)c3)CC2)n1 [Example 12]             6.1
16  C=CCNc1nc(NCC=C)nc(N2CCC(NCCC(c3ccccc3)c3ccccc3)CC2)n1 [Example 6]             3.9
17  COC(=O)[C@H]1[C@H]2C[C@@H]3c4[nH]c5cc(OC)ccc5c4CCN3C[C@H]2C[C@@H](OC(=O)c2cc(OC)c(OC)c(OC)c2)[C@@H]1OC [RESERPINE]           26.18
